Molecular target: PmSiaT (Proteus mirabilis)
Construct: made in house
Sequence (B4EZY7 1-496): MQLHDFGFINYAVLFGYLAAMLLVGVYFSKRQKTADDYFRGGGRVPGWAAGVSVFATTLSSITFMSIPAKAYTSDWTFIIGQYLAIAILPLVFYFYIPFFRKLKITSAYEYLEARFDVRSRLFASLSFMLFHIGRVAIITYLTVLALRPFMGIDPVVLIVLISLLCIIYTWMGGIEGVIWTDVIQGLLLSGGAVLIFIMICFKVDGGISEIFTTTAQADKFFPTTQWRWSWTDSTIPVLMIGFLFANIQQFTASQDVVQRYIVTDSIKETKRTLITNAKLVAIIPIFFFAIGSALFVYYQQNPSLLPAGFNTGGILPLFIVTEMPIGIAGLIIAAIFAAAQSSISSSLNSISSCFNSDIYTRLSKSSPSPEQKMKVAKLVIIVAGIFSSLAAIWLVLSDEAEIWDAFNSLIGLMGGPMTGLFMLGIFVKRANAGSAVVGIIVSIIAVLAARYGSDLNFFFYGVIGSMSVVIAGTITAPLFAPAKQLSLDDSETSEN
Assay: nanoDSF thermal shift assay, PmSiaT
Type: binding
Conditions: PmSiaT, experiment 1, first capillary, 1.25 mM
Catalogue of Tm 1 readings, one per entry.
Field format: number, assumed °C, no unit text.

CC(=O)NC1C(OCc2cc(F)cc(F)c2)CC(O)(C(=O)O)OC1C(O)C(O)CO (stereo not drawn) = 56.7

In: Report value: Tm 1, system: PmSiaT (Proteus mirabilis), compound: CCSCC(O)C(O)C1OC(O)(C(=O)O)CC(O)C1NC(C)=O (stereo not drawn)
Out: 45.8

In: Report Tm 1 under test system PmSiaT (Proteus mirabilis) for CC(=O)NC1C(O)CC(O)(C(=O)O)OC1C(O)C(O)CCl (stereo not drawn) .
Out: 47.6

###

test: Plasma-protein binding by RED, range over three species; assay type: in vitro ADME; conditions: pH 7.2, range over human, mouse, and rat, read-out: free fraction (plasma protein binding by RED)
parameter measured: fraction unbound at 4 h, 5 μM

CC(=O)NC1C(OCc2cc(F)cc(F)c2)CC(O)(C(=O)O)OC1C(O)C(O)CO (stereo not drawn) = 0.63 to 0.85
CC(=O)NC1C(OCc2cc(Br)cc(Br)c2)CC(O)(C(=O)O)OC1C(O)C(O)CO (stereo not drawn) = 0.21 to 0.27

Here's the next entry for you.
In: Hello, please tell me recorded fraction unbound at 4 h, 5 μM for this one: CC(=O)NC1C(OCc2ccccc2)CC(O)(C(=O)O)OC1C(O)C(O)CO (stereo not drawn)
Out: 0.63 to 0.85

###

target: SaSiaT (Staphylococcus aureus); test: nanoDSF thermal shift assay, SaSiaT; format: binding; conditions: SaSiaT Tm, average of experiment 1
Field 'label' (enum: satisfied / not satisfied). Set to satisfied when Average 1 is strictly under 50 °C; else not satisfied.

CC(=O)NC1C(OCc2ccc(Br)cc2)CC(O)(C(=O)O)OC1C(O)C(O)CO (centres unmarked) [Compound 3c] = not satisfied
CC(=O)NC1C(O)CC(O)(C(=O)O)OC1C(O)C(C)O (centres unmarked) [Compound 8f] = satisfied
CC(=O)NC1C(OCc2ccccc2)CC(O)(C(=O)O)OC1C(O)C(O)CO (centres unmarked) [Compound 3a] = not satisfied
[N-]=[N+]=NCC(=O)N[C@H]1[C@H]([C@H](O)[C@H](O)CO)O[C@@](O)(C(=O)O)C[C@@H]1O [Compound 6h, reference compound] = not satisfied
O=C(NC1C(O)CC(O)(C(=O)O)OC1C(O)C(O)CO)c1ccccc1 (centres unmarked) [Compound 6d] = satisfied
CC(C)C(=O)NC1C(O)CC(O)(C(=O)O)OC1C(O)C(O)CO (centres unmarked) [Compound 6b] = satisfied

In: Average 1 strictly < 50 °C for this molecule? O=C(CF)NC1C(O)CC(O)(C(=O)O)OC1C(O)C(O)CO (centres unmarked) [Compound 6f]
Out: not satisfied

###

Here the recorded Average 2 is given for each entry.
target: SaSiaT (Staphylococcus aureus); experiment: nanoDSF thermal shift assay, SaSiaT; format: binding; conditions: SaSiaT Tm, average of experiment 2
Respond numerically; units are °C and should not be typed.

Completed entries (count: 5):
CC(=O)NC1C(O)CC(O)(C(=O)O)OC1C(O)C(O)CI (stereo not drawn) [Compound 8e] = 49.0
O=C(NC1C(O)CC(O)(C(=O)O)OC1C(O)C(O)CO)c1ccccc1 (stereo not drawn) [Compound 6d] = 45.6
CC(=O)NC1C(O)CC(O)(C(=O)O)OC1C(O)C(C)O (stereo not drawn) [Compound 8f] = 43.0
CC(C)(C)C(=O)NC1C(O)CC(O)(C(=O)O)OC1C(O)C(O)CO (stereo not drawn) [Compound 6c] = 44.2
CC(=O)NC1C(OCc2cc(Br)cc(Br)c2)CC(O)(C(=O)O)OC1C(O)C(O)CO (stereo not drawn) [Compound 3f] = 54.0

In: Give the value of Average 2 reported for the following: O=C(CF)NC1C(O)CC(O)(C(=O)O)OC1C(O)C(O)CO (stereo not drawn) [Compound 6f]
Out: 51.2

In: Quick one: give measured Average 2 for CC(C)C(=O)NC1C(O)CC(O)(C(=O)O)OC1C(O)C(O)CO (stereo not drawn) [Compound 6b]
Out: 44.6

In: Please supply the value of reported Average 2 for the item CSCC(O)C(O)C1OC(O)(C(=O)O)CC(O)C1NC(C)=O (stereo not drawn) [Compound 8a]
Out: 49.2

In: Please look at this compound and report its Average 2: CC(=O)NC1C(O)CC(O)(C(=O)O)OC1C(O)C(O)CN=[N+]=[N-] (stereo not drawn) [Compound 8g]
Out: 47.4

###

experiment: Metabolic stability in mouse liver microsomes; format: in vitro ADME; settings: mouse liver microsomes; read-out: intrinsic clearance Clint
parameter measured: microsomal CLint at 1 µM

// solved cases for microsomal CLint at 1 µM follow
CC(=O)NC1C(OCc2ccccc2)CC(O)(C(=O)O)OC1C(O)C(O)CO (stereo not drawn) [Compound 3a] = < 10 µL/min/mg
CC(=O)NC1C(OCc2cc(F)cc(F)c2)CC(O)(C(=O)O)OC1C(O)C(O)CO (stereo not drawn) [Compound 3e] = < 10 µL/min/mg

Proceeding to the next compound to report its microsomal CLint at 1 µM.
In: Read the entry CC(=O)NC1C(OCc2cc(Br)cc(Br)c2)CC(O)(C(=O)O)OC1C(O)C(O)CO (stereo not drawn) [Compound 3f] and write its reported microsomal CLint at 1 µM.
Out: < 10 µL/min/mg

###

target: SiaT from S. aureus (Staphylococcus aureus, UniProt A0A0H2XJ46); test: [3H]Neu5Ac uptake in proteoliposomes, SaSiaT
Sequence (A0A0H2XJ46 entry or part of it): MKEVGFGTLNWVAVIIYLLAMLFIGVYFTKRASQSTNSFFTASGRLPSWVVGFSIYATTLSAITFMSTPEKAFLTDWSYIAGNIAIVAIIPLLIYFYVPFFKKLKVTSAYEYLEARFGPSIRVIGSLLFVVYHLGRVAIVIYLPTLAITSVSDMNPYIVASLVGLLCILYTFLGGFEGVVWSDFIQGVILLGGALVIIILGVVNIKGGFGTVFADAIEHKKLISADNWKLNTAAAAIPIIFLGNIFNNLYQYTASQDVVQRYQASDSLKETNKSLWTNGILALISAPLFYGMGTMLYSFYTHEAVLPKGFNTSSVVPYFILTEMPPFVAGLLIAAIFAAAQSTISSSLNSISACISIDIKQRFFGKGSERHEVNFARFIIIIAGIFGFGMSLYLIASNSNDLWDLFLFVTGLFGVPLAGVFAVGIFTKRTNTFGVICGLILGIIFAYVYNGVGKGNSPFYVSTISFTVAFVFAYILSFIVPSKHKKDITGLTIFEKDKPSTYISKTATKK
parameter measured: Ki (µM)
Respond numerically; units are µM and should not be typed.

CC(=O)NC1C(OCc2cc(Br)cc(Br)c2)CC(O)(C(=O)O)OC1C(O)C(O)CO (centres unmarked) = 53.6

# input for lookup
In: Tell me its Ki given CC(=O)NC1C(OCc2cc(F)cc(F)c2)CC(O)(C(=O)O)OC1C(O)C(O)CO (centres unmarked) as the entry.
Out: 2.8

###

Parameter SaSiaT -TΔS°: see the listing below.
biological target: SaSiaT (Staphylococcus aureus, UniProt A0A0H2XJ46); test: Isothermal titration calorimetry, SaSiaT; assay type: binding; conditions: ITC
Sequence (A0A0H2XJ46 entry or part of it): as above
Report the figure in kcal/mol without appending any unit label.

CC(=O)NC1C(OCc2ccccc2)CC(O)(C(=O)O)OC1C(O)C(O)CO (stereo not shown) = -16
CC(=O)NC1C(OCc2cc(Br)cc(Br)c2)CC(O)(C(=O)O)OC1C(O)C(O)CO (stereo not shown) = -13.1
CC(=O)N[C@H]1[C@H]([C@H](O)[C@H](O)CO)OC(O)(C(=O)O)C[C@@H]1O (stereo partly shown) [Neu5Ac, 5-N-acetyl neuraminic acid, reference compound] = -14.7

Next:
In: Supply measured SaSiaT -TΔS° of CC(=O)NC1C(OCc2cc(F)cc(F)c2)CC(O)(C(=O)O)OC1C(O)C(O)CO (stereo not shown) in your reply.
Out: -16.5

###

Target: PmSiaT (Proteus mirabilis, UniProt B4EZY7)
Construct: made in house
Sequence (B4EZY7 1-496): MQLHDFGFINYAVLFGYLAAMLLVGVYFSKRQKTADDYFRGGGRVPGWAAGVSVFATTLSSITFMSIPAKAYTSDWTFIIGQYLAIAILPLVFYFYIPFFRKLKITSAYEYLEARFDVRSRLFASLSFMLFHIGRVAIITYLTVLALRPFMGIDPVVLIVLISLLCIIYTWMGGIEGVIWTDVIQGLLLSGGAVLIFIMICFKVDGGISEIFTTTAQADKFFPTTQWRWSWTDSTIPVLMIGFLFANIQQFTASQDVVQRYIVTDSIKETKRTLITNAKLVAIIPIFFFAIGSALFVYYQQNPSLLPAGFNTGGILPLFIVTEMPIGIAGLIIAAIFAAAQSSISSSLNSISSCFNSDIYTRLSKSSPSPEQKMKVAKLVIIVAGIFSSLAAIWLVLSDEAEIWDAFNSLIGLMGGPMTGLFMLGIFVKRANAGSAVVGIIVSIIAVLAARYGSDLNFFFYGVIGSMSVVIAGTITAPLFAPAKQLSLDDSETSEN
Assay: nanoDSF thermal shift assay, PmSiaT
Assay type: binding
Settings: PmSiaT, experiment 3, vs Neu5Ac; read-out: ΔTm 3
parameter measured: ΔTm (°C)
Please respond with the number in °C and leave the unit unwritten.

As a guide, the following entries are already answered.
CC(=O)NC1C(O)CC(O)(C(=O)O)OC1C(O)C(O)CCl (centres unmarked) = -1.3
CC(=O)NC1C(OCc2cc(F)cc(F)c2)CC(O)(C(=O)O)OC1C(O)C(O)CO (centres unmarked) = 6.8

In: Give me measured ΔTm, please, for this compound: O=C(Cc1ccccc1)NC1C(O)CC(O)(C(=O)O)OC1C(O)C(O)CO (centres unmarked)
Out: -3.3

In: Using known records, supply ΔTm for [N-]=[N+]=NCC(=O)N[C@H]1[C@H]([C@H](O)[C@H](O)CO)O[C@@](O)(C(=O)O)C[C@@H]1O [Compound 6h, reference compound]
Out: 0

In: Give the reported ΔTm for this compound. CC(=O)NC1C(OCc2ccc(F)cc2)CC(O)(C(=O)O)OC1C(O)C(O)CO (centres unmarked)
Out: 3.8

Origin of values: paper PMC9295122
